These measurements were taken from patent US20230002496A1.

# SUBJECT_OF_TEST: T1, human GM-CSFRα, full length on cells (human, UniProt P15509 23-400)
# T1 sequence: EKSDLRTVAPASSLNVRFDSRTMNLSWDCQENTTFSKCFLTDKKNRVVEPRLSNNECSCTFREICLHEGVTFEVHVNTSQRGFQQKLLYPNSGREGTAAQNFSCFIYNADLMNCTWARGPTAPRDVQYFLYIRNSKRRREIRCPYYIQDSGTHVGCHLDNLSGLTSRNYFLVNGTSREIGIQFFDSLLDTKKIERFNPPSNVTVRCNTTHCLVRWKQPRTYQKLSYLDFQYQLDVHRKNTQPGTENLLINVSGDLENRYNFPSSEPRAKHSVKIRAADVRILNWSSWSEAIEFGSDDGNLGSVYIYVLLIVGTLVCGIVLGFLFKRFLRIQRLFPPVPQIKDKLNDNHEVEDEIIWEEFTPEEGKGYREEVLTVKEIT
# ASSAY_NOTES: cell-based or functional assay

BINDER	IC50, TF-1 cell proliferation / µg/mL
E35-VH28E-IG4 (antibody, IgG4, V domains shown) VH: QMQLVQSGAEVKKPGASVKVSCKVSGYELTELSIHWVRQAPGKGLEWMGGFDPEDGETIYAQKFQGRVTMTGDTSTDTAYLELSSLRSEDTALYYCATGRYTSLATTYGFDYWGQGTLVTVSS VL: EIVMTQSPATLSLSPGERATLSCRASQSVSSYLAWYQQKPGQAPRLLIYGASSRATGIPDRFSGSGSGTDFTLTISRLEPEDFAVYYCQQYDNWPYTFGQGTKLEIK	0.0307
E35-VH28E-VL30C-IG4 (antibody, IgG4, V domains shown) VH: QMQLVQSGAEVKKPGASVKVSCKVSGYELTELSIHWVRQAPGKGLEWMGGFDPEDGETIYAQKFQGRVTMTGDTSTDTAYLELSSLRSEDTALYYCATGRYTSLATTYGFDYWGQGTLVTVSS VL: EIVMTQSPATLSLSPGERATLSCRASQSVCSYLAWYQQKPGQAPRLLIYGASSRATGIPDRFSGSGSGTDFTLTISRLEPEDFAVYYCQQYDNWPYTFGQGTKLEIK	0.0208
E35-VH28H-IG4 (antibody, IgG4, V domains shown) VH: QMQLVQSGAEVKKPGASVKVSCKVSGYHLTELSIHWVRQAPGKGLEWMGGFDPEDGETIYAQKFQGRVTMTGDTSTDTAYLELSSLRSEDTALYYCATGRYTSLATTYGFDYWGQGTLVTVSS VL: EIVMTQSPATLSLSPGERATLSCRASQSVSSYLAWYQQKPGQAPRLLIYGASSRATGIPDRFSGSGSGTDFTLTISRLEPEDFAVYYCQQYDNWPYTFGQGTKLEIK	0.0569
E35-VH28E-VL30L-IG4 (antibody, IgG4, V domains shown) VH: QMQLVQSGAEVKKPGASVKVSCKVSGYELTELSIHWVRQAPGKGLEWMGGFDPEDGETIYAQKFQGRVTMTGDTSTDTAYLELSSLRSEDTALYYCATGRYTSLATTYGFDYWGQGTLVTVSS VL: EIVMTQSPATLSLSPGERATLSCRASQSVLSYLAWYQQKPGQAPRLLIYGASSRATGIPDRFSGSGSGTDFTLTISRLEPEDFAVYYCQQYDNWPYTFGQGTKLEIK	0.0268
